assay type: in vivo, Sprague-Dawley (SD) rats; details: male, Sprague-Dawley, rat, plasma, po, 15 mL kg^−1
Consider the following compounds; for each one, report its AUC(0-inf).
Record the result as number plus unit.

For each of the compounds below, note its AUC(0-inf).
1. O=c1cc(-c2ccc(O)c(O)c2)oc2cc(O)cc(O)c12
2. COc1ccc(-c2cc(=O)c3c(O)cc(O)cc3o2)cc1
3. O=c1c(O)c(-c2ccc(O)c(O)c2)oc2cc(O)cc(O)c12

["35.4 ng·h/mL", "17.7 ng·h/mL", "18.2 ng·h/mL"]

====

assay: Stability of the analytes in rat plasma QC samples; type: in vitro ADME; details: 3 free thaw cycles, high QC spiked concentration
Endpoint: Free-thaw stability: Measured concentration (ng/mL)
Numbers only, in ng/mL.

The following compounds have reported results that may help.
Compound	Recorded Result
C[C@@H]1O[C@@H](O[C@@H]2[C@@H](O)[C@H](OCCc3ccc(O)c(O)c3)O[C@H](CO)[C@H]2OC(=O)/C=C/c2ccc(O)c(O)c2)[C@H](O)[C@H](O)[C@H]1O [Acteoside, acteoside]	2132.91
COc1ccc(-c2cc(=O)c3c(O)cc(O)cc3o2)cc1	108.48
O=c1c(O)c(-c2ccc(O)c(O)c2)oc2cc(O)cc(O)c12	67.46
C[C@@H]1O[C@@H](OC[C@H]2O[C@@H](Oc3c(-c4ccc(O)c(O)c4)oc4cc(O)cc(O)c4c3=O)[C@H](O)[C@@H](O)[C@@H]2O)[C@H](O)[C@H](O)[C@H]1O	437.7
O=c1cc(-c2ccc(O)cc2)oc2cc(O)cc(O)c12	494.36

Could you now look at the following compound, please?
Endpoint output: Free-thaw stability: Measured concentration of O=c1cc(-c2ccc(O)c(O)c2)oc2cc(O)cc(O)c12 . Value?
258.35
